Exercise: for every item that follows, state its recorded combination Emax.
Test system: IST-MEL1 (Melanoma)
measurement.protocol: combination Emax (second highest fraction inhibited in the dose matrix, 72 h); higher = more inhibition; extreme values may be limits of the assay
One number for each entry.

Recorded combination Emax, per entry:
compound: C=CCn1c(=O)c2cnc(Nc3ccc(N4CCN(C)CC4)cc3)nc2n1-c1cccc(C(C)(C)O)n1 [AZD1775] + Nc1ccn([C@@H]2O[C@H](CO)[C@@H](O)C2(F)F)c(=O)n1 [Gemcitabine] (first compound max 1 µM, partner max 0.3 µM)
experimental.system: IST-MEL1 (Melanoma)
value.reported: 0.662
--
compound: C[C@@H](Oc1cc(-c2cnn(C3CCNCC3)c2)cnc1N)c1c(Cl)ccc(F)c1Cl [Crizotinib] + Cn1cnc2c(F)c(Nc3ccc(Br)cc3Cl)c(C(=O)NOCCO)cc21 [Selumetinib] (first compound max 10 µM, 7x7, partner max 10 µM)
experimental.system: IST-MEL1 (Melanoma)
value.reported: 0.454
--
compound: C[C@@H](c1ccc2nccn2c1)n1nnc2ncc(-c3cnn(C)c3)nc21 [Savolitinib] + CC1(C)CCC(CN2CCN(c3ccc(C(=O)NS(=O)(=O)c4ccc(NCC5CCOCC5)c([N+](=O)[O-])c4)c(Oc4cnc5[nH]ccc5c4)c3)CC2)=C(c2ccc(Cl)cc2)C1 [Venetoclax] (first compound max 1 µM, 7x7, partner max 1 µM)
experimental.system: IST-MEL1 (Melanoma)
value.reported: 0.124

Next up:
combination Emax recorded for this compound, N#Cc1cnc(Nc2cc(NC[C@H]3CNCCO3)c(C(F)(F)F)cn2)cn1 [SRA737] + C=CCn1c(=O)c2cnc(Nc3ccc(N4CCN(C)CC4)cc3)nc2n1-c1cccc(C(C)(C)O)n1 [AZD1775] (first compound max 10 µM, partner max 1 µM) , is 0.655

All values here come from the supplement of paper PMC11061612.
